Collected IC50 values appear next to each entry.
TEST_TARGET: class B enzyme CcrA (Bacteroides fragilis, UniProt P25910)
Sequence (P25910 19-249): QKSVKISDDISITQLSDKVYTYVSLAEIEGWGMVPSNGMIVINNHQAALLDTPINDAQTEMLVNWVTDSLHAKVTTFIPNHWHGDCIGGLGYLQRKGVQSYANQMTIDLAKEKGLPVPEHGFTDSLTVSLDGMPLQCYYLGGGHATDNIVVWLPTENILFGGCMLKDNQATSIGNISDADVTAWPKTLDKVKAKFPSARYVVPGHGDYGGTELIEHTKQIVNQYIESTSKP
TEST_DETAILS: IC50 determination, β-lactamase inhibition (nitrocefin, spectrophotometric)
Format: biochemical
CONDITION_DESCRIPTION: enzyme 1.2 nM; 10 minutes preincubation at 25° C.; nitrocefin 50 μg/ml; pH 7.0; read-out: IC50 (nM) Class B Ccr
Counter-ions that a name gives are not always drawn.
Write it as a number; the unit nM goes unstated.

Completed entries (count: 3):
COMPOUND | EXPERIMENTAL_READOUT | MEASUREMENT_UNITS | RESULT_VALUE
O=C(O)C1=CS[C@@H]2/C(=C\c3cc4c(s3)CCN(C(=O)c3cccnc3)C4)C(=O)N12 | IC50 | nM | 110
O=C([O-])C1=CS[C@@H]2/C(=C\c3cc4n(n3)CCCO4)C(=O)N12.[Na+] [Example 36, sodium salt] | IC50 | nM | 140
CN1CCn2cc(/C=C3/C(=O)N4C(C(=O)O)=CS[C@H]34)nc2C1 [Example 2, sodium salt] | IC50 | nM | 120

Item O=C([O-])C1=CS[C@@H]2/C(=C\c3cc4n(n3)CCO4)C(=O)N12.[Na+] [Example 33, sodium salt] : provide IC50 41

Item O=C(O)C1=CS[C@@H]2/C(=C\c3cc4n(n3)CCC4)C(=O)N12 [Example 8, sodium salt] : provide IC50 14

Item O=C(O)C1=CS[C@@H]2/C(=C\c3cc4c(s3)CCN(Cc3ccccc3)C4)C(=O)N12 : provide IC50 260

Item O=C([O-])C1=CS[C@@H]2/C(=C\c3cc4n(n3)CCSC4)C(=O)N12.[Na+] [Example 11, sodium salt] : provide IC50 61

---

System: Clinical isolates that have been adapted to cause infection in mice
TEST_DETAILS: In vivo antibacterial protection, 7 day survival of infected mice
Parameters: species or system mice strain CD-1
CONDITION_DESCRIPTION: Mus musculus, 168 h, Ratio of Piperacillin vs. Inhibitor 4:1, read-out: ED50
Where a name gives a salt, the structure may show the parent alone.
EXPERIMENTAL_READOUT: ED50 (mg/kg)
Write it as a number; the unit mg/kg goes unstated.

Completed entries (count: 4):
COMPOUND | ED50 (mg/kg)
O=C(O)C1=CSC2C(=Cc3cn4c(n3)CCCCC4)C(=O)N12 (stereo not drawn) | 59.2
O=C(O)C1=CS[C@@H]2/C(=C\c3cn4c(n3)COCC4)C(=O)N12 [Example 7, sodium salt] | 22.8
O=C(O)C1=CS[C@@H]2/C(=C\c3cc4c(s3)CCN(C(=O)c3cccnc3)C4)C(=O)N12 | 128
O=C(O)C1=CS[C@@H]2/C(=C\c3cc4c(s3)CCN(C(=O)Cc3ccccc3)C4)C(=O)N12 | 128

Okay, next one:
Item O=C([O-])C1=CS[C@@H]2/C(=C\c3cc4n(n3)CCSC4)C(=O)N12.[Na+] : provide ED50 13.9

---

TEST_TARGET: class A β-lactamase TEM-1 (Escherichia coli, UniProt P62593)
Sequence (P62593 24-286 limits assumed): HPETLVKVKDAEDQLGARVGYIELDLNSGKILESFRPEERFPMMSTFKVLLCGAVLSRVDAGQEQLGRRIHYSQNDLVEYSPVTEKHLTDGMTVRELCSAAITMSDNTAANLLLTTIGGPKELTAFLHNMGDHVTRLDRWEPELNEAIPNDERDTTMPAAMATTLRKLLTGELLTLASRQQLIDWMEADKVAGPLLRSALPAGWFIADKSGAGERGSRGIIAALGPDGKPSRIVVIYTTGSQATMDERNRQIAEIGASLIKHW
TEST_DETAILS: IC50 determination, β-lactamase inhibition (nitrocefin, spectrophotometric)
Type: biochemical, E. coli
CONDITION_DESCRIPTION: enzyme 4.3 nM; 10 minutes preincubation at 25° C.; nitrocefin 50 μg/ml; pH 7.0
Where a name gives a salt, the structure may show the parent alone.
Collected IC50 values appear next to each entry.
Write it as a number; the unit nM goes unstated.

Completed entries (count: 4):
MOLECULE | RESULT_VALUE
O=C([O-])C1=CS[C@@H]2/C(=C\c3cc4n(n3)CCCC4)C(=O)N12.[Na+] [Example 9, sodium salt] | 2.2
CC1(C)Cc2cc(/C=C3/C(=O)N4C(C(=O)[O-])=CS[C@H]34)nn2C1.[Na+] [Example 26, sodium salt] | 0.73
O=C([O-])C1=CS[C@@H]2/C(=C\c3cc4n(n3)CSC4)C(=O)N12.[Na+] [Example 31, sodium salt] | 1.4
O=C(O)C1=CSC2C(=Cc3cc4c(s3)CCSC4)C(=O)N12 (stereo not shown) | 3.1

Item O=C(O)C1=CS[C@@H]2/C(=C\c3cc4c(s3)CCN(Cc3cccnc3)C4)C(=O)N12 : provide IC50 9.8

Item O=C(O)C1=CS[C@@H]2/C(=C\c3cc4n(n3)CCNC4)C(=O)N12 [Example 25, sodium salt] : provide IC50 1.1

Item O=C(O)C1=CS[C@@H]2/C(=C\c3cc4n(n3)CCS(=O)(=O)C4)C(=O)N12 [Example 24, sodium salt] : provide IC50 1.1

---

Collected IC50 values appear next to each entry.
TEST_TARGET: UniProtKB P25910
TEST_DETAILS: IC50 determination, β-lactamase inhibition (nitrocefin, spectrophotometric)
Format: biochemical
CONDITION_DESCRIPTION: enzyme 1.2 nM; 10 minutes preincubation at 25° C.; nitrocefin 50 μg/ml; pH 7.0; read-out: IC50 (nM) Class B Ccr
Structures can show the parent of a compound that is named as a salt.
Write it as a number; the unit nM goes unstated.

Completed entries (count: 10):
MOLECULE | IC50 / nM
O=C(O)C1=CS[C@@H]2/C(=C\c3cc4n(n3)CCNC4)C(=O)N12 [Example 25, sodium salt] | 162
O=C([O-])C1=CS[C@@H]2/C(=C\c3cc4n(n3)CSC4)C(=O)N12.[Na+] [Example 31, sodium salt] | 110
O=C(O)C1=CS[C@@H]2/C(=C\c3cc4n(n3)CCOC4)C(=O)N12 | 30
O=C(O)C1=CSC2C(=Cc3cc4c(s3)CCOC4)C(=O)N12 (stereo not shown) | 14
O=C(O)C1=CSC2C(=Cc3cn4c(n3)CCCCC4)C(=O)N12 (stereo not shown) | 170
O=C(O)C1=CS[C@@H]2/C(=C\c3cn4c(n3)COCC4)C(=O)N12 [Example 7, sodium salt] | 66
O=C(O)C1=CSC2C(=Cc3cc4c(s3)CCSC4)C(=O)N12 (stereo not shown) | 12
O=C(O)C1=CS[C@@H]2/C(=C\c3cc4n(n3)CCOC4=O)C(=O)N12 | 26
O=C(O)C1=CS[C@@H]2/C(=C\c3cc4c(s3)CCN(Cc3cccnc3)C4)C(=O)N12 | 280
O=C(O)C1=CS[C@@H]2/C(=C\c3cc4c(o3)CCC4)C(=O)N12 [Example 27, sodium salt] | 73

Okay, next one:
Item CC(=O)N1CCc2sc(/C=C3/C(=O)N4C(C(=O)[O-])=CS[C@H]34)cc2C1.[Na+] (single isomer, unassigned) [Example 34, Sodium salt] : provide IC50 99

---

EXPERIMENTAL_READOUT: melting point (°C)
Write it as a number; the unit °C goes unstated.

MOLECULAR_STRING | MEASUREMENT_UNITS | RESULT_VALUE
O=C(O)C1=CS[C@@H]2/C(=C\c3cc4c(s3)CCN(C(=O)c3cccnc3)C4)C(=O)N12 | °C | 195

Okay, next one:
Item O=C(O)C1=CS[C@@H]2/C(=C\c3cc4c(s3)CCN(Cc3ccccc3)C4)C(=O)N12 : provide melting point 198

---

TEST_TARGET: class C enzyme AmpC (Enterobacter cloacae)
Sequence (P05364 21-381): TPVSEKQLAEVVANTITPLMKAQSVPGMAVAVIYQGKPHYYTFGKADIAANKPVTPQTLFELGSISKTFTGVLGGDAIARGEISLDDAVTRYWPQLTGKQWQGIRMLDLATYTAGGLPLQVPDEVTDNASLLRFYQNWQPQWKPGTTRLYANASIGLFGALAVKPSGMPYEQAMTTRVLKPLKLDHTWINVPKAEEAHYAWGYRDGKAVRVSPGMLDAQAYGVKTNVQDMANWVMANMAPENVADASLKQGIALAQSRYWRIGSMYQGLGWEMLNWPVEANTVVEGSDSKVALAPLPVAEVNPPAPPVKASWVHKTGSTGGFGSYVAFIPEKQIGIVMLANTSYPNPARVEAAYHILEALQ
TEST_DETAILS: biochemical
Design: species or system Enterobacter cloaca
CONDITION_DESCRIPTION: enzyme 2.1 nM; 10 minutes preincubation at 25° C.; nitrocefin 50 μg/ml; pH 7.0; read-out: IC50 (nM) Class C AmpC
Counter-ions that a name gives are not always drawn.
EXPERIMENTAL_READOUT: IC50 (nM)
Write it as a number; the unit nM goes unstated.

Under class C enzyme AmpC (Enterobacter cloacae): report IC50 of CCOC(=O)N1CCc2sc(C=C3C(=O)N4C(C(=O)O)=CSC34)cc2C1 (stereo not drawn) . 9.2

Under class C enzyme AmpC (Enterobacter cloacae): report IC50 of O=C(O)C1=CS[C@@H]2/C(=C\c3cc4n(n3)CCS(=O)(=O)C4)C(=O)N12 [Example 24, sodium salt] . 1.5

Under class C enzyme AmpC (Enterobacter cloacae): report IC50 of CN1CCc2sc(C=C3C(=O)N4C(C(=O)O)=CSC34)cc2C1 (stereo not drawn) . 26

---

Collected IC50 values appear next to each entry.
TEST_TARGET: class A β-lactamase Imi-1 (Enterobacter cloacae, UniProt Q46991)
Sequence (Q46991 28-292): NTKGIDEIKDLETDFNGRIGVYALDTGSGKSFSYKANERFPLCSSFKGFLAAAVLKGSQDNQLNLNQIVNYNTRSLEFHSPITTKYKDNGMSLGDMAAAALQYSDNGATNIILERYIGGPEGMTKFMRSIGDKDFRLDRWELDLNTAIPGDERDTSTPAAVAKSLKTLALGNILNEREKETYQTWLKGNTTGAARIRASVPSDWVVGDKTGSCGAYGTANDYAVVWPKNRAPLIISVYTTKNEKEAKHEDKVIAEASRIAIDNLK
TEST_DETAILS: IC50 determination, β-lactamase inhibition (nitrocefin, spectrophotometric)
Type: biochemical
CONDITION_DESCRIPTION: enzyme 7.1 nM; 10 minutes preincubation at 25° C.; nitrocefin 50 μg/ml; pH 7.0; read-out: IC50 (nM) Class A Imi
Write it as a number; the unit nM goes unstated.

Completed entries (count: 3):
MOLECULE | MEASUREMENT_UNITS | IC50
CN1CCc2sc(C=C3C(=O)N4C(C(=O)O)=CSC34)cc2C1 (stereo not shown) [Example 17] | nM | 24
O=C(O)C1=CS[C@@H]2/C(=C\c3cc4c(s3)CCN(Cc3cccnc3)C4)C(=O)N12 [Example 21] | nM | 40
CC1(C)Cc2cc(/C=C3/C(=O)N4C(C(=O)[O-])=CS[C@H]34)nn2C1.[Na+] [Example 26, sodium salt] | nM | 54

Okay, next one:
Item O=C(O)C1=CS[C@@H]2/C(=C\c3cnc4n3CCSC4)C(=O)N12 [Example 30] : provide IC50 2300
